system: C. elegans; conditions: Table S2, C. elegans SS assay, 110 μM, 0 h, averages of 4 data points
Hi there, I'd appreciate the recorded Percentage of motility inhibition 0 h for every entry that follows.
Give bare numbers, in %.

compound: CC1=CCC2CC1C2(C)C (stereo not drawn) [(-)-α-Pinene]
measurement units: %
assay result: 0
//
compound: C[C@H](CC[C@@H](O[C@@H]1O[C@H](CO)[C@@H](O)[C@H](O)[C@H]1O[C@@H]1O[C@H](CO)[C@@H](O)[C@H](O)[C@H]1O)C(C)(C)O)[C@H]1CC[C@@]2(C)[C@H]3CC=C4[C@@H](CC[C@H](O[C@@H]5O[C@H](CO[C@@H]6O[C@H](CO)[C@@H](O)[C@H](O)[C@H]6O)[C@@H](O)[C@H](O)[C@H]5O)C4(C)C)[C@]3(C)[C@H](O)C[C@]12C [Mogroside IV-E]
measurement units: %
assay result: 4
//
compound: C=C1CC[C@]2(C)CC[C@]3(C)[C@H](CC[C@@H]4[C@@]5(C)CC[C@H](O)C(C)(C)[C@@H]5CC[C@]43C)[C@H]2[C@@H]1C [Taraxasterol]
measurement units: %
assay result: 1

For every item in the list below, what is its measured Percentage of motility inhibition 0 h?
1. OC1C[C@H]2CC[C@@H](C1)N2 (some centres unmarked) [Nortropine]
2. O=c1cc(-c2ccc(O)c(O)c2)oc2cc(O[C@@H]3O[C@H](CO)[C@@H](O)[C@H](O)[C@H]3O)c(O)c(O)c12 [6‐Hydroxyluteolin 7‐glucoside]
3. O=C(/C=C/c1ccc(O)cc1)c1ccc(O[C@@H]2O[C@H](CO)[C@@H](O)[C@H](O)[C@H]2O)cc1O [Neoisoliquiritin]
4. CC(=O)[C@H]1CC[C@H]2[C@@H]3CC[C@H]4CC(=O)CC[C@]4(C)[C@H]3CC[C@]12C [5a‐Pregnane‐3,20‐dione]

Result:
12
0
17
2

For every item in the list below, what is its measured Percentage of motility inhibition 0 h?
1. CC[C@@H](CO)NCCN[C@@H](CC)CO.Cl.Cl [Ethambutol (dihydrochloride)]
2. O=C(O)C1=CO[C@@H](O[C@@H]2O[C@H](CO)[C@@H](O)[C@H](O)[C@H]2O)[C@H]2[C@@H]1C=C[C@]2(O)CO [Monotropein]
3. C[C@H](CC[C@@H](O[C@@H]1O[C@H](CO)[C@@H](O)[C@H](O)[C@H]1O[C@@H]1O[C@H](CO)[C@@H](O)[C@H](O)[C@H]1O)C(C)(C)O)[C@H]1CC[C@@]2(C)[C@H]3CC=C4[C@@H](CC[C@H](O[C@@H]5O[C@H](CO[C@@H]6O[C@H](CO)[C@@H](O)[C@H](O)[C@H]6O)[C@@H](O)[C@H](O)[C@H]5O)C4(C)C)[C@]3(C)[C@H](O)C[C@]12C [Mogroside IV]
4. C[C@@]12C[C@@H](c3ccoc3)OC(=O)[C@@H]1CC[C@]1(C)[C@H]2[C@@H]2C=C[C@@]1(O)C(=O)O2 [Columbin]

Result:
1. 26
2. 0
3. 0
4. 0

For every item in the list below, what is its measured Percentage of motility inhibition 0 h?
1. CC(C)=CCC[C@](C)(O[C@@H]1O[C@H](CO)[C@@H](O)[C@H](O)[C@H]1O)[C@H]1CC[C@]2(C)[C@@H]1[C@H](O)C[C@@H]1[C@@]3(C)CC[C@H](O)C(C)(C)[C@@H]3CC[C@]12C [Ginsenoside C-K]
2. COc1c(/C=C/C(=O)c2ccc(O)cc2)ccc(O)c1CC=C(C)C [Licochal cone C]

Result:
1: 4; 2: 0
